Assay: Partition coefficient, log P of the compound
Format: physicochemical
Details: octanol/water; read-out: LogP
value-kind: logP

{"columns": ["compound-string", "result"],
 "data": [
  ["CC(=O)OC[C@]12[C@@H](OC(=O)c3ccccc3)[C@@H](OC(=O)c3ccccc3)[C@@H]3[C@@H](OC(C)=O)[C@]1(OC3(C)C)[C@H](C)C[C@H](OC(C)=O)[C@@H]2OC(C)=O", 8.3],
  ["CC(=O)O[C@@H]1[C@H](O)[C@@H](C)[C@@]23C[C@@H](C[C@H](OC(=O)/C=C/c4ccccc4)[C@]2(C)[C@H]1OC(=O)c1ccccc1)C(C)(C)O3", 6.3],
  ["CC(=O)O[C@@H]1C[C@@](C)(O)[C@@]23C[C@@H](C[C@H](OC(=O)/C=C/c4ccccc4)[C@]2(C)[C@H]1OC(=O)c1ccccc1)C(C)(C)O3", 6.5],
  ["CC(=O)OC[C@]12[C@@H](OC(=O)c3ccco3)C[C@@H]3[C@@H](OC(C)=O)[C@]1(OC3(C)C)[C@](C)(O)C[C@H](OC(=O)c1ccco1)[C@@H]2OC(=O)c1ccco1", 6.5],
  ["CCCCCO[C@@H]1[C@@H]2[C@@H](OC(C)=O)[C@@]3(OC2(C)C)[C@@](COC(C)=O)([C@@H](OC(C)=O)CC[C@@]3(C)O)[C@@H]1OC(=O)c1ccccc1", 7]
]}
